- System: HCMV
- protocolText: HCMV titer, plaque or yield reduction
- Format: cell-based, human cytomegalovirus (Towne strain) in HFF cells
- measurementParameters: Human betaherpesvirus 5, read-out: HCMV Titer, Plaque or Yield Reduction, 50% Inhibitory Concentration

compound: Nc1ncnc2c1c(Br)cn2COCCO [UMJD 102]
IC50 (µM): 3.9

====

- protocolText: in vitro
- Type: cell-based, human
- measurementParameters: human, kb cells
- Procedure: KB or HFF cells were planted using a Costar Transplate-96 (Costar, Cambridge, Mass.) in Costar 96-well cluster dishes at a concentration of 10,000 to 12,000 cells per well. […] Logarithmic cell growth occurred during this time with continual uptake of labeled precursors. […] Liquid scintillation solution was added, and radioactivity determined in a Beckman model LS8100 liquid scintillation spectrometer. All samples were counted for 2.0 minutes each, with three rounds of counting. […]
experimentalReadout: CC50 (µM)

compound: Nc1ncnc2c1c(Cl)cn2COCCO
experimentalReadout: CC50
readingUnit: µM
measurementQualifier: =
readoutNumber: 350
//
compound: OCC(CO)OCn1cc(Br)c2c(NO)ncnc21
experimentalReadout: CC50
readingUnit: µM
measurementQualifier: =
readoutNumber: 357
//
compound: Nc1nc2c(ncn2COCCO)c(=O)[nH]1 [Acyclovir, reference compound]
experimentalReadout: CC50
readingUnit: µM
measurementQualifier: >
readoutNumber: 100
//
compound: Nc1ncnc2c1c(I)cn2COCCO
experimentalReadout: CC50
readingUnit: µM
measurementQualifier: =
readoutNumber: 94
//
compound: Nc1ncnc2c1c(Cl)cn2COC(CO)CO
experimentalReadout: CC50
readingUnit: µM
measurementQualifier: >
readoutNumber: 100
//
compound: Nc1ncnc2c1c(Br)cn2COC(CO)CO
experimentalReadout: CC50
readingUnit: µM
measurementQualifier: =
readoutNumber: 25
//
compound: Nc1ncnc2c1c(Br)cn2COCCO
experimentalReadout: CC50
readingUnit: µM
measurementQualifier: =
readoutNumber: 100
//
compound: NC(=S)c1cn(COC(CO)CO)c2ncnc(N)c12
experimentalReadout: CC50
readingUnit: µM
measurementQualifier: >
readoutNumber: 100
//
compound: NC(=S)c1cn(COCCO)c2ncnc(N)c12
experimentalReadout: CC50
readingUnit: µM
measurementQualifier: >
readoutNumber: 100
//
compound: Nc1nc(O)c2ncn(COC(CO)CO)c2n1 [Ganciclovir (DHPG), reference compound]
experimentalReadout: CC50
readingUnit: µM
measurementQualifier: =
readoutNumber: 1000
